assay: Toxicity in Kunming mouse assessed as histopathological changes in kidney at 200 mg/kg, iv once daily for 5 days by H and E staining based analysis; assay type: organism-based; conditions: in vivo, 120 h, time 5 day
RECORDED_METRIC: Activity

CC(=O)N[C@H]1[C@H](OCCCCC(=O)NCCCNC(=O)CCOCC(COCCC(=O)NCCCNC(=O)CCCCO[C@@H]2O[C@H](CO)[C@H](O)[C@@H](O)[C@H]2NC(C)=O)(COCCC(=O)NCCCNC(=O)CCCCO[C@@H]2O[C@H](CO)[C@H](O)[C@@H](O)[C@H]2NC(C)=O)NC(=O)CCC(=O)NCCOCCOCCOCCOCCn2cc(COP(=O)(COCCn3cnc4c(N)ncnc43)OCOC(=O)C(C)(C)C)nn2)O[C@H](CO)[C@H](O)[C@H]1O (some centres undefined) : Non-toxic
CC(=O)N[C@H]1[C@H](OCCCCC(=O)NCCOCCOCCOCCOCCn2cc(COP(=O)(CO[C@H](C)Cn3cnc4c(N)ncnc43)OCOC(=O)C(C)(C)C)nn2)O[C@H](CO)[C@H](O)[C@H]1O (some centres undefined) : Non-toxic
CC(=O)N[C@H]1[C@H](OCCCCC(=O)NCCOCCOCCOCCOCCn2cc(COP(=O)(COCCn3cnc4c(N)ncnc43)OCOC(=O)C(C)(C)C)nn2)O[C@H](CO)[C@H](O)[C@H]1O (some centres undefined) : Non-toxic
CC(=O)N[C@H]1[C@H](OCCCCC(=O)NCCCNC(=O)CCOCC(COCCC(=O)NCCCNC(=O)CCCCO[C@@H]2O[C@H](CO)[C@H](O)[C@@H](O)[C@H]2NC(C)=O)(COCCC(=O)NCCCNC(=O)CCCCO[C@@H]2O[C@H](CO)[C@H](O)[C@@H](O)[C@H]2NC(C)=O)NC(=O)CCC(=O)NCCOCCOCCOCCOCCn2cc(COP(=O)(CO[C@H](C)Cn3cnc4c(N)ncnc43)OCOC(=O)OC(C)C)nn2)O[C@H](CO)[C@H](O)[C@H]1O (some centres undefined) : Non-toxic

====

test: Toxicity in Kunming mouse assessed as effect on kidney size at 100 to 200 mg/kg, iv once daily for 5 days; format: organism-based; settings: in vivo, 120 h, dose 100-200 mg/kg, time 5 day
RECORDED_METRIC: Activity

CC(=O)N[C@H]1[C@H](OCCCCC(=O)NCCOCCOCCOCCOCCn2cc(COP(=O)(CO[C@H](C)Cn3cnc4c(N)ncnc43)OCOC(=O)C(C)(C)C)nn2)O[C@H](CO)[C@H](O)[C@H]1O (some centres undefined) : Non-toxic
CC(=O)N[C@H]1[C@H](OCCCCC(=O)NCCOCCOCCOCCOCCn2cc(COP(=O)(COCCn3cnc4c(N)ncnc43)OCOC(=O)C(C)(C)C)nn2)O[C@H](CO)[C@H](O)[C@H]1O (some centres undefined) : Non-toxic
CC(=O)N[C@H]1[C@H](OCCCCC(=O)NCCCNC(=O)CCOCC(COCCC(=O)NCCCNC(=O)CCCCO[C@@H]2O[C@H](CO)[C@H](O)[C@@H](O)[C@H]2NC(C)=O)(COCCC(=O)NCCCNC(=O)CCCCO[C@@H]2O[C@H](CO)[C@H](O)[C@@H](O)[C@H]2NC(C)=O)NC(=O)CCC(=O)NCCOCCOCCOCCOCCn2cc(COP(=O)(COCCn3cnc4c(N)ncnc43)OCOC(=O)C(C)(C)C)nn2)O[C@H](CO)[C@H](O)[C@H]1O (some centres undefined) : Non-toxic
CC(=O)N[C@H]1[C@H](OCCCCC(=O)NCCCNC(=O)CCOCC(COCCC(=O)NCCCNC(=O)CCCCO[C@@H]2O[C@H](CO)[C@H](O)[C@@H](O)[C@H]2NC(C)=O)(COCCC(=O)NCCCNC(=O)CCCCO[C@@H]2O[C@H](CO)[C@H](O)[C@@H](O)[C@H]2NC(C)=O)NC(=O)CCC(=O)NCCOCCOCCOCCOCCn2cc(COP(=O)(CO[C@H](C)Cn3cnc4c(N)ncnc43)OCOC(=O)OC(C)C)nn2)O[C@H](CO)[C@H](O)[C@H]1O (some centres undefined) : Non-toxic

Taken from ChEMBL document CHEMBL6153042.
